Where these numbers come from: ChEMBL document CHEMBL1131329

Would you mind telling me the reported CC50 of each entry?
System: Vero
Experimental details: Cytotoxic concentration to uninfected vero cells
Type: functional, Chlorocebus sabaeus
Particulars: Chlorocebus sabaeus, Vero; read-out: CC50

I have this compound here, Nc1ccn(C[C@]2(CO)C[C@@H]2CO)c(=O)n1 , and I need its recorded CC50.
> 500 µg/mL

I have this compound here, Cc1cn(C[C@]2(CO)C[C@@H]2CO)c(=O)[nH]c1=O (stereo in doubt; 41a) , and I need its recorded CC50.
> 500 µg/mL

I have this compound here, Nc1nc2c(ncn2COCCO)c(=O)[nH]1 , and I need its recorded CC50.
820 µg/mL

I have this compound here, Nc1nc(O)c2ncn(C[C@@]3(CO)C[C@H]3CO)c2n1 , and I need its recorded CC50.
> 500 µg/mL

I have this compound here, Nc1ncnc2c1ncn2C[C@]1(CO)C[C@@H]1CO , and I need its recorded CC50.
120 µg/mL

I have this compound here, Nc1nc(O)c2ncn(C[C@@]3(CO)C[C@@H]3CO)c2n1 (stereo in doubt; 3b) , and I need its recorded CC50.
> 500 µg/mL

I have this compound here, Nc1ncnc2c1ncn2C/C(=C/CO)CO , and I need its recorded CC50.
260 µg/mL

I have this compound here, Nc1nc(O)c2ncn(CC3[C@@H](CO)[C@H]3CO)c2n1 (some centres not stated) , and I need its recorded CC50.
> 500 µg/mL

I have this compound here, OC[C@H]1C[C@@]1(CO)Cn1cnc2c(O)ncnc21 , and I need its recorded CC50.
> 500 µg/mL

I have this compound here, Cc1cn(C/C(=C/CO)CO)c(=O)[nH]c1=O , and I need its recorded CC50.
> 500 µg/mL

I have this compound here, Nc1ncnc2c1ncn2C/C(=C\CO)CO , and I need its recorded CC50.
260 µg/mL

I have this compound here, Nc1nc(O)c2ncn(C[C@]3(CO)C[C@H]3CO)c2n1 , and I need its recorded CC50.
240 µg/mL

I have this compound here, Nc1ccn(C[C@]2(CO)C[C@H]2CO)c(=O)n1 , and I need its recorded CC50.
> 500 µg/mL

I have this compound here, Nc1nc(O)c2ncn(C/C(=C\CO)CO)c2n1 , and I need its recorded CC50.
> 500 µg/mL

I have this compound here, Nc1nc(O)c2ncn(C[C@@]3(CO)O[C@@H]3CO)c2n1 , and I need its recorded CC50.
> 500 µg/mL

I have this compound here, OC[C@@H]1C[C@@]1(CO)Cn1cnc2c(O)ncnc21 , and I need its recorded CC50.
> 500 µg/mL

I have this compound here, Nc1nc(O)c2ncn(C/C(=C/CO)CO)c2n1 , and I need its recorded CC50.
> 500 µg/mL

I have this compound here, Nc1nc(O)c2ncn(CC3[C@H](CO)[C@H]3CO)c2n1 (some centres not stated) , and I need its recorded CC50.
> 500 µg/mL

I have this compound here, Nc1nc(N)c2ncn(CC3(CO)CC3CO)c2n1 (configuration not stated) , and I need its recorded CC50.
> 500 µg/mL

I have this compound here, Nc1nc(O)c2ncn(C[C@@]3(CO)O[C@H]3CO)c2n1 , and I need its recorded CC50.
> 500 µg/mL

I have this compound here, Cc1cn(C/C(=C\CO)CO)c(=O)[nH]c1=O , and I need its recorded CC50.
> 500 µg/mL

I have this compound here, Nc1ncc2ncn(CC3(CO)CC3CO)c2n1 (configuration not stated) , and I need its recorded CC50.
> 500 µg/mL
